- test description: rescue of polyQ-huntingtin neuronal dysfunction in worms, whole organism, C. elegans mechanosensory neurons, N-terminal huntingtin (AID 1599)
- run conditions: touch response, stronger effect = higher value
Results with a measured potency or affinity are listed apart.
measured metric: rescue above control
// response body must contain only the number

Check out these entries, answers already filled in.
# molecule, measured metric, readout number
data = [
    ("CCN1CCN(C(=O)NC(C(=O)N[C@@H]2C(=O)N3[C@@H]2SC(C)(C)[C@@H]3C(=O)O)c2ccccc2)C(=O)C1=O (stereo partly specified)", "rescue above control", 11.4),
    ("COc1ccc(C[C@H](N)C(=O)N[C@@H]2[C@@H](CO)OC(n3cnc4c(N(C)C)ncnc43)[C@@H]2O)cc1 (stereo partly specified)", "rescue above control", -10.3),
    ("CN1C2CCC1CC(OC(c1ccccc1)c1ccccc1)C2 (stereo unspecified)", "rescue above control", -5.92),
    ("CC(=O)OCC(=O)[C@@]1(O)[C@H](C)CC2C3CCC4=CC(=O)C=C[C@]4(C)[C@@]3(F)[C@@H](O)C[C@@]21C (stereo partly specified)", "rescue above control", 1.81),
    ("CC(Cc1ccc(O)c(O)c1)(NN)C(=O)O (stereo unspecified)", "rescue above control", -6.05),
    ("CC(=O)O[C@H]1C[C@@]2(C)[C@@H](C[C@@H](O)C3[C@]2(C)CC[C@H]2[C@H](C)[C@H](O)CC[C@]32C)/C1=C(/CCC=C(C)C)C(=O)O (stereo partly specified)", "rescue above control", -0.35),
    ("Nc1ncnc2c1ncn2C1O[C@H](COP(=O)(O)O)[C@@H](O)[C@H]1O (stereo partly specified)", "rescue above control", 1.04),
    ("C[C@]12CCC(=O)C=C1CCC1C2[C@@H](O)C[C@@]2(C)C1CC[C@]2(O)C(=O)CO (stereo partly specified)", "rescue above control", -4.34),
]

# input For the molecule "CO[C@@H]1[C@@H](O[C@@H]2O[C@H](C)[C@@H](O[C@H]3C[C@@](C)(O)[C@H](O)[C@H](C)O3)[C@H](N(C)C)[C@H]2O)[C@@H](CC=O)C[C@@H](C)[C@@H](O[C@H]2CC[C@H](N(C)C)[C@@H](C)O2)/C=C/C=C/C[C@H](C)OC(=O)C[C@H]1O" , give its reported rescue above control.
# output 24.9

----------
Below, each entry is listed alongside its reported inhibition.
- test description: polyglutamine-triggered caspase-3 activation inhibitors, cell-based (AID 1583)
- run conditions: polyglutamine-induced caspase-3 activation, cell assay; stronger effect = higher value; concentration not given here
Dear colleague, please return just the value in %, with no unit written.

A selection of reference data follows.
# compound, readout number
rows = [
    ("C=C(C)[C@H]1CC=C(C(=O)O)CC1", 10.7),
    ("CC1(C)O[C@@H]2CC3C4CCC5=CC(=O)C=C[C@]5(C)[C@@]4(F)[C@@H](O)C[C@]3(C)[C@]2(C(=O)CO)O1 (some centres not stated)", 7.99),
    ("C[C@]12CCC(=O)C=C1CCC1C2[C@@H](O)C[C@@]2(C)C1CC[C@]2(O)C(=O)CO (some centres not stated)", 5.24),
    ("CC(C)C[C@@H](NC(=O)OCC1c2ccccc2-c2ccccc21)C(=O)O", -9.47),
    ("Nc1ccc(C(=O)O)c(O)c1 (tested in a mixture with another compound)", -9.55),
    ("COc1ccc([C@@H]2CC(=O)c3c(O)cc(O[C@@H]4O[C@H](CO[C@H]5O[C@@H](C)[C@H](O)[C@@H](O)[C@H]5O)[C@@H](O)[C@H](O)[C@H]4O)cc3O2)cc1O", 12.3),
    ("CCCC(=O)Nc1ncnc2c1ncn2C1O[C@@H]2COP(=O)(O)O[C@H]2[C@H]1OC(=O)CCC (some centres not stated)", -71.1),
    ("CC(=O)O[C@H]1C[C@@]2(C)[C@@H](C[C@@H](O)C3[C@]2(C)CC[C@H]2[C@H](C)[C@H](O)CC[C@]32C)/C1=C(/CCC=C(C)C)C(=O)O (some centres not stated)", 8.99),
]

# input Please list inhibition recorded for the compound "O=C1O[C@@H](CO)[C@H](O)[C@@H](O)[C@@H]1O"
# output -15.4

# input Report measured inhibition; entry is CC1(C)O[C@@H]2CC3C4C[C@H](F)C5=CC(=O)CC[C@]5(C)C4[C@@H](O)C[C@]3(C)[C@]2(C(=O)CO)O1 (some centres not stated)
# output 6.64

# input Look up inhibition of COC(=O)C(N)CS (configuration not stated) and report it.
# output -5.77

# input Look up and state reported inhibition for "CC(C)(C)NC[C@@H](O)COc1nsnc1N1CCOCC1"
# output 6.36
